tested on: NCI-H23; assay: NCI tumour cell line growth inhibition, 48 h
The source made the active and inactive calls. Cut-off read from the data, not from the text of the source: active = GI50 up to about 1.1 µM and inactive = higher.
API: response.call in Y (active), N (inactive)

See these solved cases before continuing.
compound: O=C1C=C2SC3C[C@@]24CC1(O)[N+]1=c2c4c(c(O)c4c2=C(C=N4)CC1)N3
target-system: NCI-H23
class-label: N
//
compound: Cc1n[n+]([O-])c(C)cc1[N+](=O)[O-]
target-system: NCI-H23
class-label: N
//
compound: COC(=O)C1(C(=O)OC)CC2=C(S(=O)(=O)c3ccccc3)C[C@H](C#N)[C@H]2C1
target-system: NCI-H23
class-label: N

Record request — test call for O=C(NC1C(=O)NNC1c1ccccc1Cl)c1ccccc1 (stereo not drawn) N

Let us now turn to CN1CCN(C(=S)N(C(=O)c2ccc(Cl)cc2)C2CCCCC2)CC1 N

Let us now turn to C[N+](C)(C)CC(=O)N/N=C(\C(=O)Nc1ccc(Cl)cc1)C1C(=O)N(c2ccccc2)N=C1N (stereo not drawn) N

Let us now turn to CC(=O)OC1=CC2=CC[C@H]3[C@@H]4CCC(=O)[C@@]4(C)CC(=O)[C@]3(S)[C@@]2(C)CC1 N

Let us now turn to c1ccc2c(c1)[nH]c1c2nc2ccccn21 N

Let us now turn to CC1CCCP(=O)(c2ccccc2)CCC1 (stereo not drawn) N

Let us now turn to C/C(=C\COP(=O)(O)OP(=O)(O)O)CC/C=C(\C)CNc1c(F)c(F)c(F)c(F)c1F N

Let us now turn to NNS(=O)(=O)c1cc(C(=O)O)cc(C(=O)O)c1 N

Let us now turn to C/C(=N\Nc1nc2ccccc2o1)c1cc2ccccc2cn1 Y

Let us now turn to Cn1cnc([N+](=O)[O-])c1[Se]c1ncnc2nc[nH]c12 N

Let us now turn to COc1ccc(C(O)c2ccccn2)cc1 (stereo not drawn) N

Let us now turn to C/C(=N\NC(N)=S)c1cc(C)c(C)cc1C N

Let us now turn to N=C(N)Nc1nc2cc([N+](=O)[O-])ccc2[nH]1 N

Every entry's value here was drawn from ChEMBL document CHEMBL1201862.
